Test system: HCT116 p53^−/− cells
methodDescription: SRB growth inhibition assay in HCT116 p53-/- cells
Assay type: cell-based, human
experimentalConditions: GI50 of HCT116 p53^−/−/GI50 of HCT116 p53^+/+
Reported SI1: Selective index 1 by item:
Respond numerically, and do not add a unit to the figure.

>  <querySmiles>
COc1cc2c(cc1OC)C(=O)/C(=C/c1cc(OC)c(OC)c(OC)c1)C2

>  <observedValue>
0.67

$$$$

API: value(readout= SI1: Selective index 1, system= HCT116 p53^−/− cells, query= `COc1cc(/C=C2\CCc3ccccc3C2=O)cc(OC)c1OC` )
1.32

Form field: SI1: Selective index 1 recorded for `COc1cc2c(cc1OC)C(=O)/C(=C/c1ccc(Cl)cc1)C2` with HCT116 p53^−/− cells (enter value)
0.60

API: value(readout=SI1: Selective index 1, system=HCT116 p53^−/− cells) for record `CCCc1c(OC)ccc(C(=O)CCc2cc(OC)c(OC)c(OC)c2)c1O`
0.60

# value lookup — system HCT116 p53^−/− cells, readout SI1: Selective index 1, item `O=C(/C=C/c1ccc(Cl)cc1)/C=C/c1ccc(Cl)cc1`
1.63
